These measurements were taken from ChEMBL document CHEMBL1133851.

# Test system: Hairpin ribozyme RNA
Where a SMILES comes first, the peptide text is derived from it. [ ]: non-standard residue; d: D form. ξ: configuration not given here. Dab = NCC[C@H](N)C(=O)O; Dap = NC[C@H](N)C(=O)O; ξDab = NCCC(N)C(=O)O; ξDap = NCC(N)C(=O)O
Entries whose K obs is below 0.02 take 1.0; entries at or above 0.02 take 0.0.

See these solved cases before continuing.
[[record]]
compound = "NCCCC[C@@H](N)C(=O)O"
label_class = 1.0

[[record]]
compound = "NCC(=O)O"
label_class = 1.0

[[record]]
compound = "NCC[C@@H](N)C(=O)O"
label_class = 0.0

[[record]]
compound = "N[C@@H](Cc1c[nH]cn1)C(=O)O"
label_class = 0.0

[[record]]
compound = "NC[C@H](N)C(=O)O"
label_class = 0.0

[[record]]
compound = "NCCC(NC(=O)[C@@H](N)CCN)C(=O)O (stereo partly drawn) (H-[Dab]-[ξDab]-OH)"
label_class = 0.0

[[record]]
compound = "NCC[C@H](N)C(=O)O"
label_class = 0.0

[[record]]
compound = "NCCCC(=O)O"
label_class = 1.0


## Input Take the compound NCCC(=O)O and say whether its K obs is less than 0.02.
## Output 1.0

## Input Take the compound NCC(NC(=O)[C@@H](N)CN)C(=O)O (stereo partly drawn) (H-[Dap]-[ξDap]-OH) and say whether its K obs is less than 0.02.
## Output 0.0

## Input Take the compound N=C(N)NCCC[C@H](N)C(=O)O and say whether its K obs is less than 0.02.
## Output 1.0

## Input Take the compound NCCC(NC(=O)[C@@H](N)CN)C(=O)O (stereo partly drawn) (H-[Dap]-[ξDab]-OH) and say whether its K obs is less than 0.02.
## Output 0.0

###

# Tested on: Hairpin ribozyme RNA
Tick fulfilled if K obs is 0.03 or greater. Tick not fulfilled if K obs is less than 0.03.

See these solved cases before continuing.
[[record]]
substance_smiles = "NC[C@@H](N)C(=O)O"
label_class = "not fulfilled"

[[record]]
substance_smiles = "NCCCC[C@H](N)C(=O)O"
label_class = "not fulfilled"

[[record]]
substance_smiles = "N[C@@H](Cc1c[nH]cn1)C(=O)O"
label_class = "not fulfilled"


## Input Can N[C@H](Cc1c[nH]cn1)C(=O)O be said to have K obs at or above 0.03?
## Output not fulfilled

## Input Can NCCCNCCCCNCCCN be said to have K obs at or above 0.03?
## Output fulfilled

## Input Can NC[C@H](N)C(=O)O be said to have K obs at or above 0.03?
## Output fulfilled

## Input Can NCCCC(=O)O be said to have K obs at or above 0.03?
## Output not fulfilled

## Input Can NCCCC[C@@H](N)C(=O)O be said to have K obs at or above 0.03?
## Output not fulfilled

## Input Can NCCC[C@@H](N)C(=O)O be said to have K obs at or above 0.03?
## Output fulfilled

## Input Can N=C(N)NCCC[C@H](N)C(=O)O be said to have K obs at or above 0.03?
## Output fulfilled

## Input Can NCC[C@@H](N)C(=O)O be said to have K obs at or above 0.03?
## Output not fulfilled

## Input Can NCC[C@H](N)C(=O)O be said to have K obs at or above 0.03?
## Output fulfilled
